assay: Solubility of compound at pH 7.4 at 1 to 100 uM; assay type: physicochemical; details: buffer, pH 7.4, 100 µM; dose 1-100 µM
parameter-measured: solubility

COc1ccc(C(=O)N2CCN(CC(=O)N3CCN(CCCc4c[nH]c5ccc(OC)cc45)CC3)CC2)cc1: Soluble
COc1cccc(C(=O)N2CCN(CC(=O)N3CCN(CCCc4c[nH]c5ccccc45)CC3)CC2)c1: Soluble
O=C(CN1CCN(C(=O)c2ccc(Cl)cc2)CC1)N1CCN(CCCc2c[nH]c3ccccc23)CC1: Soluble

###

test system: SH-SY5Y; assay: Cytotoxicity against human SH-SY5Y cells assessed as reduction in cell viability incubated for 72 hrs by MTT assay; type: ADME, cell-based
Assign labels as follows, please: 1 for IC50 below 100 µM; 0 for IC50 equal to or exceeding 100 µM.

# example entries with known answers
Cc1ccc(C(=O)N2CCN(CC(=O)N3CCN(CCCc4c[nH]c5ccc(F)cc45)CC3)CC2)cc1: 0
COc1cccc(C(=O)N2CCN(CC(=O)N3CCN(CCCc4c[nH]c5ccc(F)cc45)CC3)CC2)c1: 1
COc1ccc2[nH]cc(CCCN3CCN(C(=O)CN4CCN(C(=O)c5ccccc5Br)CC4)CC3)c2c1: 0
CN(C)CCCC1(c2ccc(F)cc2)OCc2cc(C#N)ccc21 (stereo not given): 0
O=C(CN1CCN(C(=O)c2cccc(Br)c2)CC1)N1CCN(CCCc2c[nH]c3ccccc23)CC1: 1
O=C(CN1CCN(C(=O)c2ccccc2F)CC1)N1CCN(CCCc2c[nH]c3ccccc23)CC1: 1

Could you now look at the following molecule, please?
Prompt: Consider the molecule O=C(CN1CCN(C(=O)c2cccc(Cl)c2)CC1)N1CCN(CCCc2c[nH]c3ccc(F)cc23)CC1 . Is its IC50 strictly less than 100 µM?
Completion: 1
